# assay.explanation: Cell Viability - LYMP2-016 (AID 984);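 further: cells exposed to compound for 24 hours at 37 °C; nearly all actives have a fitted effect of over 55% in size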
# condition.info: LYMP2-016 lymphoblastoid cell viability, qHTS; series mostly up to 92.2 µM
# Description: NIH Chemical Genomics Center [NCGC] NIH Molecular Libraries Screening Centers Network [MLSCN] National Institutes of Environmental Health Sciences [NIEHS] National Toxicology Program [NTP] We have developed a 1536-well cell-based assay for quantitative high throughput screening (qHTS) against a number of cell lines to determine in vitro cytotoxicity of small molecules. […] 8. Detection; Luminescence; Viewlux plate reader […]
Records with an inconclusive call do not appear. The source made the active and inactive calls. The call rests on the fitted dose curve; in most records, active means well fitted cell-killing curve with a large enough effect; inconclusive means small, poorly fitted or top-dose-only effect; inactive means flat fitted curve, though single readings scatter. Peptide text beside a SMILES is read from it.

| compound | outcome |
| --- | --- |
| CS(=O)(=O)OCCCCOS(C)(=O)=O | inactive |
| COC(=O)[C@H](Cc1ccccc1)NC(=O)[C@@H](N)CC(=O)O (H-Asp-Phe-OMe) | inactive |
| COc1c2occc2cc2ccc(=O)oc12 | inactive |

Data provenance is PubChem BioAssay (NCATS).
